Taken from paper PMC4505335.

- measured-on: PPARγ (Homo sapiens, UniProt P37231)
- Construct: gene PPARG; no SRC1 peptide; In-house His6-LBD 206-477 (E. coli) used for crystal and kinase assay
- Sequence (P37231 234-505 limits assumed): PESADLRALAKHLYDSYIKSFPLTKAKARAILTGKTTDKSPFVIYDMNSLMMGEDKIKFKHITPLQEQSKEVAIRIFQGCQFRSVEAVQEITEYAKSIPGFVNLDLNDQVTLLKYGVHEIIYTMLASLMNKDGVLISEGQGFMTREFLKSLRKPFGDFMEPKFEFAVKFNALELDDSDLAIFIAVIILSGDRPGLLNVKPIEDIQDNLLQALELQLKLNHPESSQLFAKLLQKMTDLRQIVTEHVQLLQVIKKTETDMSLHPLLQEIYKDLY
- experimental-protocol: crystal structure at […] Å; Lantha TR-FRET competitive binding; AlphaScreen

molecule | IC50 / µM
COc1ccc2c(c[n+](C)c3c4cc5c(cc4ccc23)OCO5)c1OC | 0.566
